Measured values drawn from paper PMC10454728 for this set.

Target: UniProtKB Q9BSA9
Sequence (Q9BSA9 1-504): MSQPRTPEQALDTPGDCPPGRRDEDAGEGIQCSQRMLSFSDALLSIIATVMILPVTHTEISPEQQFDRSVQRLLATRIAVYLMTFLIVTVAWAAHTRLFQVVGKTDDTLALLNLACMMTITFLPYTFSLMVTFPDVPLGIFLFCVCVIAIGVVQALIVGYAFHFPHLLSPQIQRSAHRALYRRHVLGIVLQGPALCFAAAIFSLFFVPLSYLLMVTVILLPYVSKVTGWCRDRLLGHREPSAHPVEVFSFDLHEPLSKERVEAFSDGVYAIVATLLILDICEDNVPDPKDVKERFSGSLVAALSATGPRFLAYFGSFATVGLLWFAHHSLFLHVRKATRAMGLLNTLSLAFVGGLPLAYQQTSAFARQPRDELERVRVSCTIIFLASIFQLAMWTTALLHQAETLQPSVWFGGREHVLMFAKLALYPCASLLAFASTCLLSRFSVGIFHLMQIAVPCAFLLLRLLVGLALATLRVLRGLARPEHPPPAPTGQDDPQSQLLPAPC
Experiment: Whole-cell automated patch-clamp (APC) Cs+ flux assay, SyncroPatch 384i, HEK293 overexpressing TMEM175
Format: cell-based
Measured Property: pEC50
Quick note: pEC50 means taking -log10 of the concentration in moles per liter.

Task: Given CCCCC1(C2CCCC2)Cc2cc(OCCCC(=O)O)c(Cl)c(Cl)c2C1=O (stereo not shown) , respond with its pEC50.
Result: 4.78
